Property: pIC50; scope: individual compounds
target: MsNDH-2 (Mycolicibacterium smegmatis); assay: Inhibition of MsNDH-2 (NADH oxidation with menadione, absorbance at 340 nm); type: biochemical, M. smegmatis; details: 95% confidence interval in parentheses; 50 nM enzyme, 50 μM menadione; >100: no significant inhibition at 100 μM
Sequence (A0QYD6 1-457): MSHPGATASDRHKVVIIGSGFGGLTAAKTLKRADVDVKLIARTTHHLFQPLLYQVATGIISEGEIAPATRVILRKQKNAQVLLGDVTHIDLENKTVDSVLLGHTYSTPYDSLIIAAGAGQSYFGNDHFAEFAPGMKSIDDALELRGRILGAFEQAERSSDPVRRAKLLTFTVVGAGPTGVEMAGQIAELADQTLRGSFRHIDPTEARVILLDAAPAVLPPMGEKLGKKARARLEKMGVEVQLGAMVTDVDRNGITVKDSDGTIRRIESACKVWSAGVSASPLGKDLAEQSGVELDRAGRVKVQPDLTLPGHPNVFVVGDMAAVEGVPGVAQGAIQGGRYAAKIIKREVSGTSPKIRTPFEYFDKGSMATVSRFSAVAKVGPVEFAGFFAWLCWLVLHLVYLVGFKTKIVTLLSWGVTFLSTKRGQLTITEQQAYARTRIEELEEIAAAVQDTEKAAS
pIC50: −log10 of the molar value.
Measurement kind: pIC50

INSERT INTO measurements (compound_smiles, observed) VALUES
  ('Nc1nc(Nc2ccc3nc(-c4ccc(F)cc4)cc(N)c3c2)cc(N2CCN(CCO)CC2)n1', '< 4.00'),
  ('Nc1nc(Nc2ccc3nc(-c4ccc(F)cc4)cc(N)c3c2)cc(N2CCOCC2)n1', '< 4.00'),
  ('CN(C)C1CCN(c2cc(Nc3ccc4nc(-c5ccc(F)cc5)cc(N)c4c3)nc(N)n2)CC1', '< 4.00');
